experiment.description: High throughput microsomal stability assay (human liver microsomes)
Assay type: in vitro ADME
measurement.conditions: human liver microsomes, 1 uM compound, NADPH + UDPGA cofactors, 37 C
Provide the recorded HLM stability for the entries that follow.
One number for each entry, in mL/min/kg.

Consider the reported HLM stability for these compounds:
{"compound": "CO[C@@H]1C=C[C@H](C)N2C[C@H]1n1cc(C(=O)NCc3ccc(F)cc3F)c(=O)c(O)c1C2=O [Example 7]", "HLM stability [mL/min/kg]": 3.33}
{"compound": "[2H]C([2H])([2H])[C@]1(O)CC[C@H](C)N2C[C@H]1n1cc(C(=O)NCc3ccc(F)cc3F)c(=O)c(O)c1C2=O [Example 31]", "HLM stability [mL/min/kg]": 3}
{"compound": "CO[C@@H]1C[C@H](F)[C@H](C)N2C[C@H]1n1cc(C(=O)NCc3c(F)cc(F)cc3F)c(=O)c(O)c1C2=O [Example 37]", "HLM stability [mL/min/kg]": 2.83}

List the reported HLM stability of each compound below.
1. CCO[C@H]1CC[C@H](C)N2C[C@H]1n1cc(C(=O)NCc3c(F)cc(F)cc3F)c(=O)c(O)c1C2=O [Example 26]
2. C[C@H]1CC[C@@](C)(O)[C@H]2CN1C(=O)c1c(O)c(=O)c(C(=O)NCc3c(F)cc(F)cc3F)cn12 (single isomer, unassigned) [Example 32]
3. CO[C@H]1C=C[C@H](C)N2C[C@H]1n1cc(C(=O)NCc3ccc(F)cc3F)c(=O)c(O)c1C2=O [Example 19]

1: 3.67; 2: 9; 3: 7.83

----------
experiment.description: High throughput microsomal stability assay (human liver microsomes)
Assay type: in vitro ADME
measurement.conditions: human liver microsomes, 1 uM compound, NADPH + UDPGA cofactors, 37 C
attribute.measured: HLM stability (mL/min/kg)
Numbers only, in mL/min/kg.

Example molecules with recorded HLM stability:
{"molecule": "C[C@H]1CC[C@](C)(O)[C@H]2CN1C(=O)c1c(O)c(=O)c(C(=O)NCc3ccc(F)cc3F)cn12 (single isomer, unassigned)", "readout.value": 2.5}
{"molecule": "C[C@H]1[C@H]2CO[C@H](C2)[C@H]2CN1C(=O)c1c(O)c(=O)c(C(=O)NCc3ccc(F)cc3F)cn12", "readout.value": 2.83}
{"molecule": "CO[C@@H]1C=C[C@H](C)N2C[C@H]1n1cc(C(=O)NCc3ccc(F)c(Cl)c3F)c(=O)c(O)c1C2=O", "readout.value": 6.67}
{"molecule": "C[C@@H]1CC[C@](C)(O)[C@H]2CN1C(=O)c1c(O)c(=O)c(C(=O)NCc3ccc(F)cc3F)cn12 (single isomer, unassigned)", "readout.value": 10.3}
{"molecule": "CO[C@H]1C[C@H](F)[C@H](C)N2C[C@H]1n1cc(C(=O)NCc3c(F)cc(F)cc3F)c(=O)c(O)c1C2=O", "readout.value": 4.67}

The record that follows has no HLM stability shown yet.
`CO[C@H]1CC[C@H](CF)N2C[C@H]1n1cc(C(=O)NCc3ccc(F)cc3F)c(=O)c(O)c1C2=O` yielded HLM stability of 1.83

----------
experiment.description: Cytotoxicity assay in MT-4 cells
Type: cell-based
measurement.conditions: human, uninfected MT-4 cells, Cell Titer Glo
Field: class. Source value: CC50 at 5 days. Ranges: 0: < 10 µM; 1: ≥ 10 µM and < 20 µM; 2: ≥ 20 µM

{"compound": "CO[C@H]1CC[C@H](CF)N2C[C@H]1n1cc(C(=O)NCc3ccc(F)cc3F)c(=O)c(O)c1C2=O", "assigned.class": 1}
{"compound": "[2H]C([2H])([2H])[C@]1(O)C=C[C@H](C)N2C[C@H]1n1cc(C(=O)NCc3ccc(F)cc3F)c(=O)c(O)c1C2=O", "assigned.class": 0}

Which bin, given its CC50 at 5 days, does `C[C@H]1CC[C@H](O)[C@@]2(C)CN1C(=O)c1c(O)c(=O)c(C(=O)NCc3ccc(F)cc3F)cn12` occupy?
2

Lab note: which band did `CO[C@@H]1C=C[C@H](C)N2C[C@H]1n1cc(C(=O)NCc3c(F)cc(F)cc3F)c(=O)c(O)c1C2=O` land in?
1

State the class of the compound shown: CO[C@@H]1C[C@@H](F)[C@H](C)N2C[C@H]1n1cc(C(=O)NCc3c(F)cc(F)cc3F)c(=O)c(O)c1C2=O (single isomer, unassigned)
2

In plain terms, what class is `C[C@H]1C=C[C@H](O)[C@H]2CN1C(=O)c1c(O)c(=O)c(C(=O)NCc3ccc(F)cc3F)cn12` ?
2

Category lookup for the compound `C[C@H]1CC[C@H](OC(F)F)[C@H]2CN1C(=O)c1c(O)c(=O)c(C(=O)NCc3c(F)cc(F)cc3F)cn12`
1

Where would C[C@@H]1CC[C@](C)(O)[C@H]2CN1C(=O)c1c(O)c(=O)c(C(=O)NCc3ccc(F)cc3F)cn12 (single isomer, unassigned) land among the classes by reported CC50 at 5 days?
1

Which class is correct for the following compound? `C[C@H]1C=C[C@H](OC(F)F)[C@H]2CN1C(=O)c1c(O)c(=O)c(C(=O)NCc3c(F)cc(F)cc3F)cn12`
0

Just checking, what class would you give `[2H]C([2H])([2H])O[C@H]1CC[C@H](C)N2C[C@H]1n1cc(C(=O)NCc3ccc(F)cc3F)c(=O)c(O)c1C2=O` here?
1

Bin? `CC[C@]1(O)CC[C@H](C)N2C[C@H]1n1cc(C(=O)NCc3c(F)cc(F)cc3F)c(=O)c(O)c1C2=O`
2

----------
Tested on: HIV-1 (IIIB) in MT-4 cells
experiment.description: HIV MT-4 antiviral assay
Assay type: cell-based
measurement.conditions: Human immunodeficiency virus 1, MT4, 120 h, 5 days, Cell Titer Glo
attribute.measured: EC50 (nM)
One number for each entry, in nM.

Answered cases to consult:
{"compound": "C[C@H]1C=C[C@](C)(O)[C@H]2CN1C(=O)c1c(O)c(=O)c(C(=O)NCc3c(F)cc(F)cc3F)cn12", "EC50 (nM)": 7.9}
{"compound": "CO[C@H]1C=C[C@H](C)N2C[C@H]1n1cc(C(=O)NCc3ccc(F)cc3F)c(=O)c(O)c1C2=O", "EC50 (nM)": 1.1}
{"compound": "CO[C@@]1(C)C=C[C@H](C)N2C[C@H]1n1cc(C(=O)NCc3c(F)cc(F)cc3F)c(=O)c(O)c1C2=O (single isomer, unassigned)", "EC50 (nM)": 2.2}
{"compound": "CO[C@@H]1CC(F)(F)[C@H](C)N2C[C@H]1n1cc(C(=O)NCc3c(F)cc(F)cc3F)c(=O)c(O)c1C2=O (single isomer, unassigned)", "EC50 (nM)": 2.6}
{"compound": "CO[C@H]1C=C[C@H](C)N2C[C@H]1n1cc(C(=O)NCc3ccc(F)c(Cl)c3F)c(=O)c(O)c1C2=O", "EC50 (nM)": 1}

Now look at this entry.
The reported EC50 of the compound C[C@H]1CC[C@](C)(O)[C@H]2CN1C(=O)c1c(O)c(=O)c(C(=O)NCc3ccc(F)cc3F)cn12 (single isomer, unassigned) was 1.4

----------
experiment.description: High throughput microsomal stability assay (human liver microsomes)
Assay type: in vitro ADME
measurement.conditions: human liver microsomes, 1 uM compound, NADPH + UDPGA cofactors, 37 C
attribute.measured: HLM stability (mL/min/kg)
One number for each entry, in mL/min/kg.

{"smiles.notation": "CO[C@H]1C[C@@H](F)[C@H](C)N2C[C@H]1n1cc(C(=O)NCc3c(F)cc(F)cc3F)c(=O)c(O)c1C2=O", "HLM stability, mL/min/kg": 4.67}
{"smiles.notation": "[2H]C([2H])([2H])O[C@H]1CC[C@H](C)N2C[C@H]1n1cc(C(=O)NCc3ccc(F)cc3F)c(=O)c(O)c1C2=O", "HLM stability, mL/min/kg": 4.17}
{"smiles.notation": "C[C@H]1CC[C@H](O)[C@@]2(C)CN1C(=O)c1c(O)c(=O)c(C(=O)NCc3ccc(F)cc3F)cn12", "HLM stability, mL/min/kg": 4.83}
{"smiles.notation": "C[C@H]1CC[C@H](OC(F)F)[C@H]2CN1C(=O)c1c(O)c(=O)c(C(=O)NCc3c(F)cc(F)cc3F)cn12", "HLM stability, mL/min/kg": 14.7}
{"smiles.notation": "C[C@H]1CC[C@@](C)(O)[C@H]2CN1C(=O)c1c(O)c(=O)c(C(=O)NCc3ccc(F)cc3F)cn12", "HLM stability, mL/min/kg": 5.83}

List the reported HLM stability of each compound below.
1. CO[C@@H]1CC[C@H](C)N2C[C@H]1n1cc(C(=O)NCc3c(F)cc(F)cc3F)c(=O)c(O)c1C2=O
2. C[C@H]1CC[C@@H](O)[C@H]2CN1C(=O)c1c(O)c(=O)c(C(=O)NCc3c(F)cc(F)cc3F)cn12
3. [2H]C([2H])([2H])[C@]1(O)C=C[C@H](C)N2C[C@H]1n1cc(C(=O)NCc3ccc(F)cc3F)c(=O)c(O)c1C2=O
4. CC[C@]1(O)CC[C@H](C)N2C[C@H]1n1cc(C(=O)NCc3c(F)cc(F)cc3F)c(=O)c(O)c1C2=O
5. C[C@H]1CC[C@H](O)[C@H]2CN1C(=O)c1c(O)c(=O)c(C(=O)NCc3ccc(F)cc3F)cn12

1. 4.83
2. 3.33
3. 1.83
4. 5.67
5. 1.83

Entry source: patent US12421235B2
